- subject.of.test: T1, human MUC16 (mucin 16) (human)
- T1 construct: Endogenously expressed on human tumour cell lines; also called hMUC16
- measurement.protocol: MSD ECL cell binding, RLU ratio OVCAR-3 vs SK-OV-3, 1.9 nM Ab
observation.type: Ratio anti-MUC16 Binding OVCAR-3/SK-OV-3 (ratio)
Your answer is read as ratio, so omit the unit and give the number.

For record H1H8755P (antibody, human IgG1, V domains shown, Human IgG1 (H1H: hIgG1)) VH: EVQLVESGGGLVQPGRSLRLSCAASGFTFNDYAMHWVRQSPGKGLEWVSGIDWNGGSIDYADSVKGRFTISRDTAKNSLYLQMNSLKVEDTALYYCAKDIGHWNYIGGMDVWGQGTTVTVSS VL: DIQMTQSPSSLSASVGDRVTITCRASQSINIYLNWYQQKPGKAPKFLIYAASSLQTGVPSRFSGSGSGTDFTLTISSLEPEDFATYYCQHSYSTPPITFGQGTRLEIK the listed Ratio anti-MUC16 Binding OVCAR-3/SK-OV-3 is 13

The values you see were collected from patent US20180118848A1.
